meta.source: paper PMC3889466

test system: MDCK cells; conditions: dog
I'd appreciate it if you could supply Cytotoxicity at 72 hr MCC (minimum cytotoxic concentration) values for the items below.
State the answer as a number, implicitly in µM.

Dear colleague, please send me the reported Cytotoxicity at 72 hr MCC (minimum cytotoxic concentration) for C1NCC23CC4CC12CC4C3.Cl [Compound 14b] when you can.
100

Dear colleague, please send me the reported Cytotoxicity at 72 hr MCC (minimum cytotoxic concentration) for Cl.N=C(N)N1CC23CC45CCCCC4(C2)CC3(C1)C5 [Compound 16d] when you can.
4.0

Dear colleague, please send me the reported Cytotoxicity at 72 hr MCC (minimum cytotoxic concentration) for CC12CC34CN(C(=N)N)CC3(C1)CC2(C)C4.Cl [Compound 16a] when you can.
4

Dear colleague, please send me the reported Cytotoxicity at 72 hr MCC (minimum cytotoxic concentration) for CC12CC34CNCC3(C1)CC2(C)C4.Cl [Compound 14a] when you can.
100

====

test system: MDCK cells; details: dog
PROPERTY_MEASURED: Cytotoxicity at 24 hr MCC

Dear colleague, please send me the reported Cytotoxicity at 24 hr MCC for CC12CC34CN(C(=N)N)CC3(C1)CC2(C)C4.Cl [Compound 16a] when you can.
>50 µM

Dear colleague, please send me the reported Cytotoxicity at 24 hr MCC for Cl.N=C(N)N1CC23CC4CC2(CC4C3)C1 [Compound 16b] when you can.
>50 µM

Dear colleague, please send me the reported Cytotoxicity at 24 hr MCC for Cl.N=C(N)N1CC23CC45CCCCC4(C2)CC3(C1)C5 [Compound 16d] when you can.
≥10 µM

Dear colleague, please send me the reported Cytotoxicity at 24 hr MCC for NC(=O)c1ncn([C@@H]2O[C@H](CO)[C@@H](O)[C@H]2O)n1 [Ribavirin, reference compound] when you can.
>100 µM
